- Study system: rNav1.2 sodium channels (Rattus norvegicus)
- Construct: host or cells: HEK-293
- Procedure summary: QPatch automated patch clamp, inhibition of sodium currents evoked by 5 Hz trains at three extracellular pH values
- Format: cell-based
- Experimental conditions: pH=8.6; cc 1000 mM; read-out: Apparent Affinity
Measure name: Kd (µM)
Answers are plain numbers, in µM.

Quick one: Kd of CCN(CC)CC(=O)Nc1c(C)cccc1C [lidocaine] ?
677

----------
- Study system: rNav1.2 sodium channels (Rattus norvegicus, UniProt P04775)
- Construct: host or cells: HEK-293
- Sequence (P04775 whole entry): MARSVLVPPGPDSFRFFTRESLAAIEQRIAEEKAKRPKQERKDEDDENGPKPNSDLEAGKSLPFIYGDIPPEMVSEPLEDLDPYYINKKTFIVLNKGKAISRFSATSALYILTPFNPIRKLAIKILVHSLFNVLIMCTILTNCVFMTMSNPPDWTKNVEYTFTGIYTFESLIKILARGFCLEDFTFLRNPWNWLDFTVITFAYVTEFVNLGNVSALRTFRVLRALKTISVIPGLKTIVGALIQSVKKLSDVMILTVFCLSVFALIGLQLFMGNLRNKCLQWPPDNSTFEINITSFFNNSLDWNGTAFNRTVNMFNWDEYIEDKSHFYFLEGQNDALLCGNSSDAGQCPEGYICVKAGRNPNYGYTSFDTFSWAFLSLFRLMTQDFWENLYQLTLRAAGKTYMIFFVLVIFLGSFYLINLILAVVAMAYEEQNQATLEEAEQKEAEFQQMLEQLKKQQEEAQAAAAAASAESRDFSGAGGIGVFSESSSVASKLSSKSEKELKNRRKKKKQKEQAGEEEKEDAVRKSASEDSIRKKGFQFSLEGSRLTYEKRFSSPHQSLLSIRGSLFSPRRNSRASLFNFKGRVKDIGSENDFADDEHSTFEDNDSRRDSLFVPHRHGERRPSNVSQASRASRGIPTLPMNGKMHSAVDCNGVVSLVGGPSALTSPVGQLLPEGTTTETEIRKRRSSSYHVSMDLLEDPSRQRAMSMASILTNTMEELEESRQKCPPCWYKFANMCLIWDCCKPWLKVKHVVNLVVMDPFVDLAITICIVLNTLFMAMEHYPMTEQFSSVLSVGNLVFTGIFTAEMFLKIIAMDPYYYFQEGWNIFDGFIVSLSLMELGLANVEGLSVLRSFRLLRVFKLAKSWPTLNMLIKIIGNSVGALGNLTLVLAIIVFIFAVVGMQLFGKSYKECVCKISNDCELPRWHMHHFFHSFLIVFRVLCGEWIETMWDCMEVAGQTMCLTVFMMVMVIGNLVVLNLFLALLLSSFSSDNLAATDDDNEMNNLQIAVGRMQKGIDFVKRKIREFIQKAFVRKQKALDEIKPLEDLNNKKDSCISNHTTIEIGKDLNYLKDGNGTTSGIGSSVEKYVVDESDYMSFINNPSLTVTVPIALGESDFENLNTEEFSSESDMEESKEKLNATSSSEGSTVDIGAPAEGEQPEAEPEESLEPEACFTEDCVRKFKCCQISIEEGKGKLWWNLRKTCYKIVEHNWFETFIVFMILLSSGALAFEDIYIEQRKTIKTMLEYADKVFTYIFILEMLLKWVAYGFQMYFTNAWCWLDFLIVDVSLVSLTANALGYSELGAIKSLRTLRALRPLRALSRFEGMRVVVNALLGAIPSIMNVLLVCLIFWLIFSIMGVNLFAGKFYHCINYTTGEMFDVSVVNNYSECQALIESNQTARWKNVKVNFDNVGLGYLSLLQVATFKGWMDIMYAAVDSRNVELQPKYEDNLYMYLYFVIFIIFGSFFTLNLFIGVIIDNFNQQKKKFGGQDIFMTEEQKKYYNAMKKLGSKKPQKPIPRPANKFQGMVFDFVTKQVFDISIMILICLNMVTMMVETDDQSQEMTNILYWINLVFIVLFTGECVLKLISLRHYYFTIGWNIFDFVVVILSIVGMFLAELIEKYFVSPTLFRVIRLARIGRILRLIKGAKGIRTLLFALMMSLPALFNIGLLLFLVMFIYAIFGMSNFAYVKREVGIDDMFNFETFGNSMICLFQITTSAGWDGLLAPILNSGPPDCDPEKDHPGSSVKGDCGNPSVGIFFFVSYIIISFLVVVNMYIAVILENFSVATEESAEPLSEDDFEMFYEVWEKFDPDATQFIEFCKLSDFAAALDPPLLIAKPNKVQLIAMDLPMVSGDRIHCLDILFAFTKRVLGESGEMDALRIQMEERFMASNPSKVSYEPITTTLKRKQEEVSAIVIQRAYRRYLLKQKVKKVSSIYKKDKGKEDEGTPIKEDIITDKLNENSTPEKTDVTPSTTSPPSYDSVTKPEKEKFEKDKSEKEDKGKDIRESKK
- Procedure summary: QPatch automated patch clamp, inhibition of sodium currents evoked by 5 Hz trains at three extracellular pH values
- Format: cell-based
- Experimental conditions: pH 6.0/7.3; cc 100 mM
Measure name: log Ratio App Aff

Reference set (3 entries):
COc1ccc(C(CN(C)C)C2(O)CCCCC2)cc1 (stereo not shown) [venlafaxine] = 0.177
C[Si](C)(Cc1ccc(F)cc1)CN1CCCCC1 [silperisone] = 0.387
CNCCC(Oc1ccccc1OC)c1ccccc1 (stereo not shown) [nisoxetine] = 0.419

Now take the following compound into account.
Quick one: log Ratio App Aff of Nc1c(Br)cc(Br)cc1CN[C@H]1CC[C@H](O)CC1 [ambroxol] ?
0.190
